test system: 699152-130-R-J1-PDC complex spheroid viability; test: Anticancer human tumor 699152-130-R-J1-PDC patient-derived pancreatic carcinoma cell line growth inhibition [POLQ]; conditions: curve of first compound; second compound 1 µM
measured.endpoint: pIC50
Numbers only, as −log10 of the molar value.

molecule: CCc1c2c(nc3ccc(O)cc13)-c1cc3c(c(=O)n1C2)COC(=O)[C@]3(O)CC + Nc1ccc(C#CCN(C(=O)Cc2ncc(C(F)(F)F)cc2C(F)(F)F)c2ccc(F)cc2)nn1
pIC50: 7.44
--
molecule: CCCS(=O)(=O)Nc1ccc(F)c(C(=O)c2c[nH]c3ncc(-c4ccc(Cl)cc4)cc23)c1F + Nc1ccc(C#CCN(C(=O)Cc2ncc(C(F)(F)F)cc2C(F)(F)F)c2ccc(F)cc2)nn1
pIC50: 5.08

// moving on: another record for pIC50
Looking for the measured pIC50 of CC[C@@]1(O)C(=O)OCc2c1cc1n(c2=O)Cc2cc3c(CN(C)C)c(O)ccc3nc2-1 + COC1C(OC(N)=O)C(O)C(Oc2ccc3c(O)c(NC(=O)c4ccc(O)c(CC=C(C)C)c4)c(=O)oc3c2C)OC1(C)C , can you help?
7.02

----------
test system: 699152-130-R-J1-PDC complex spheroid viability; test: Anticancer human tumor 699152-130-R-J1-PDC cell line growth inhibition [POLQ]; conditions: second compound 10 µM; first compound 1 µM; stronger effect = lower value;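 note: spheroids exposed to agents for 7 days before viability reading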;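 for viability, T/C: percent of DMSO vehicle control viability so 100% = vehicle and 0% = no viable signal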
viability, T/C less than 60% is condition met; viability, T/C greater than or equal to 60% is condition not met.

molecule: CC1COCCN1c1cc(C2(O)CC3CCC(C2)O3)c2cnn(-c3ccn[nH]3)c2n1 (stereo not given) + Nc1ccc(C#CCN(C(=O)Cc2ncc(C(F)(F)F)cc2C(F)(F)F)c2ccc(F)cc2)nn1
label: condition met
--
molecule: CC1COCCN1c1cc(-c2ccnn2C)c2ccnc(-c3ccn[nH]3)c2n1 (stereo not given) + COC1C(OC(N)=O)C(O)C(Oc2ccc3c(O)c(NC(=O)c4ccc(O)c(CC=C(C)C)c4)c(=O)oc3c2C)OC1(C)C
label: condition met
--
molecule: CC(C)n1c(=O)n(C)c2cnc3cc(F)c(-c4ccc(OCCCN5CCCCC5)nc4)cc3c21 + Nc1ccc(C#CCN(C(=O)Cc2ncc(C(F)(F)F)cc2C(F)(F)F)c2ccc(F)cc2)nn1
label: condition not met
--
molecule: COc1cccc2c1C(=O)c1c(O)c3c(c(O)c1C2=O)CC(O)(C(=O)CO)CC3OC1CC(N)C(O)C(C)O1 (stereo not given) + COC1C(OC(N)=O)C(O)C(Oc2ccc3c(O)c(NC(=O)c4ccc(O)c(CC=C(C)C)c4)c(=O)oc3c2C)OC1(C)C
label: condition met

Continue with the next molecule.
Below 60% on viability, T/C? Entry COc1cccc(OCCCN)c1-c1cc(Nc2cnc(C#N)cn2)n[nH]1 + Cc1cccc(N(C)C(=O)C2C(O)CCN2c2nc(C)cc(C(F)(F)F)c2C#N)c1
condition met

----------
For each entry below, report its viability, T/C value.
system: 699152-130-R-J1-PDC complex spheroid viability; experiment: Anticancer human tumor 699152-130-R-J1-PDC cell line growth inhibition [POLQ]; settings: second compound 3.16 µM; first compound 0.001 µM; stronger effect = lower value;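 note: spheroids exposed to agents for 7 days before viability reading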;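 for viability, T/C: percent of DMSO vehicle control viability so 100% = vehicle and 0% = no viable signal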
One number for each entry, in %.

Some entries whose results are on file:
compound: CC[C@@]1(O)C(=O)OCc2c1cc1n(c2=O)Cc2cc3c(CN(C)C)c(O)ccc3nc2-1 + Nc1ccc(C#CCN(C(=O)Cc2ncc(C(F)(F)F)cc2C(F)(F)F)c2ccc(F)cc2)nn1
tested.target: 699152-130-R-J1-PDC complex spheroid viability
viability, T/C [%]: 105
--
compound: CC[C@@]1(O)C(=O)OCc2c1cc1n(c2=O)Cc2cc3c(CN(C)C)c(O)ccc3nc2-1 + COC1C(OC(N)=O)C(O)C(Oc2ccc3c(O)c(NC(=O)c4ccc(O)c(CC=C(C)C)c4)c(=O)oc3c2C)OC1(C)C
tested.target: 699152-130-R-J1-PDC complex spheroid viability
viability, T/C [%]: 106
--
compound: CC[C@@]1(O)C(=O)OCc2c1cc1n(c2=O)Cc2cc3c(CN(C)C)c(O)ccc3nc2-1 + Cc1cccc(N(C)C(=O)C2C(O)CCN2c2nc(C)cc(C(F)(F)F)c2C#N)c1
tested.target: 699152-130-R-J1-PDC complex spheroid viability
viability, T/C [%]: 106
--
compound: Cn1ncnc1[C@H]1c2n[nH]c(=O)c3cc(F)cc(c23)N[C@@H]1c1ccc(F)cc1 + Cc1cccc(N(C)C(=O)C2C(O)CCN2c2nc(C)cc(C(F)(F)F)c2C#N)c1
tested.target: 699152-130-R-J1-PDC complex spheroid viability
viability, T/C [%]: 102
--
compound: Cn1ncnc1[C@H]1c2n[nH]c(=O)c3cc(F)cc(c23)N[C@@H]1c1ccc(F)cc1 + Nc1ccc(C#CCN(C(=O)Cc2ncc(C(F)(F)F)cc2C(F)(F)F)c2ccc(F)cc2)nn1
tested.target: 699152-130-R-J1-PDC complex spheroid viability
viability, T/C [%]: 98

Continue with the compound presented below.
Query: viability, T/C; subject: Cn1ncnc1[C@H]1c2n[nH]c(=O)c3cc(F)cc(c23)N[C@@H]1c1ccc(F)cc1 + COC1C(OC(N)=O)C(O)C(Oc2ccc3c(O)c(NC(=O)c4ccc(O)c(CC=C(C)C)c4)c(=O)oc3c2C)OC1(C)C
89.3

----------
system: 699152-130-R-J1-PDC complex spheroid viability; test: Anticancer human tumor 699152-130-R-J1-PDC cell line growth inhibition [POLQ]; conditions: second compound 0.316 µM; first compound 0.000316 µM; stronger effect = lower value;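 note: spheroids exposed to agents for 7 days before viability reading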;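 for viability, T/C: percent of DMSO vehicle control viability so 100% = vehicle and 0% = no viable signal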
measured.endpoint: viability, T/C (%)
Numbers only, in %.

molecule: Cn1ncnc1[C@H]1c2n[nH]c(=O)c3cc(F)cc(c23)N[C@@H]1c1ccc(F)cc1 + COC1C(OC(N)=O)C(O)C(Oc2ccc3c(O)c(NC(=O)c4ccc(O)c(CC=C(C)C)c4)c(=O)oc3c2C)OC1(C)C
tested.target: 699152-130-R-J1-PDC complex spheroid viability
unit.name: %
viability, T/C: 101

molecule: CC[C@@]1(O)C(=O)OCc2c1cc1n(c2=O)Cc2cc3c(CN(C)C)c(O)ccc3nc2-1 + COC1C(OC(N)=O)C(O)C(Oc2ccc3c(O)c(NC(=O)c4ccc(O)c(CC=C(C)C)c4)c(=O)oc3c2C)OC1(C)C
tested.target: 699152-130-R-J1-PDC complex spheroid viability
unit.name: %
viability, T/C: 112

Now turn to the next molecule.
Quick one: viability, T/C for Cn1ncnc1[C@H]1c2n[nH]c(=O)c3cc(F)cc(c23)N[C@@H]1c1ccc(F)cc1 + Nc1ccc(C#CCN(C(=O)Cc2ncc(C(F)(F)F)cc2C(F)(F)F)c2ccc(F)cc2)nn1 ?
102

----------
system: 699152-130-R-J1-PDC complex spheroid viability; assay: Anticancer human tumor 699152-130-R-J1-PDC cell line growth inhibition [POLQ]; settings: curve of first compound; second compound 1 µM;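 note: spheroids exposed to agents for 7 days before viability reading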
pIC50: −log10 of the molar value.
Record form. Attribute: pIC50. Fill in for each entry.

compound: CC1COCCN1c1cc(C2(S(C)(=N)=O)CC2)nc(-c2ccnc3[nH]ccc23)n1 (stereo not given) + Nc1ccc(C#CCN(C(=O)Cc2ncc(C(F)(F)F)cc2C(F)(F)F)c2ccc(F)cc2)nn1
measured.endpoint: pIC50
reading: < 5.00

Batch of 4 compounds: report pIC50 for each.
1. C=CCn1c(=O)c2cnc(Nc3ccc(N4CCN(C)CC4)cc3)nc2n1-c1cccc(C(C)(C)O)n1 + Cc1cccc(N(C)C(=O)C2C(O)CCN2c2nc(C)cc(C(F)(F)F)c2C#N)c1
2. Cn1ncnc1[C@H]1c2n[nH]c(=O)c3cc(F)cc(c23)N[C@@H]1c1ccc(F)cc1 + Nc1ccc(C#CCN(C(=O)Cc2ncc(C(F)(F)F)cc2C(F)(F)F)c2ccc(F)cc2)nn1
3. C=CCn1c(=O)c2cnc(Nc3ccc(N4CCN(C)CC4)cc3)nc2n1-c1cccc(C(C)(C)O)n1 + COC1C(OC(N)=O)C(O)C(Oc2ccc3c(O)c(NC(=O)c4ccc(O)c(CC=C(C)C)c4)c(=O)oc3c2C)OC1(C)C
4. CNCc1ccc(-c2[nH]c3cc(F)cc4c3c2CCNC4=O)cc1 + COC1C(OC(N)=O)C(O)C(Oc2ccc3c(O)c(NC(=O)c4ccc(O)c(CC=C(C)C)c4)c(=O)oc3c2C)OC1(C)C

["< 6.00", "< 7.00", "< 6.00", "< 5.00"]

----------
Can you tell me pIC50 for the items I'm about to list?
tested on: 699152-130-R-J1-PDC complex spheroid viability; test: Anticancer human tumor 699152-130-R-J1-PDC cell line growth inhibition [POLQ]; conditions: curve of first compound; second compound 0.0316 µM;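 note: spheroids exposed to agents for 7 days before viability reading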
pIC50: −log10 of the molar value.

compound: CC(=O)O[C@H]1C(=O)[C@@]2(C)[C@H]([C@H](OC(=O)c3ccccc3)[C@]3(O)C[C@H](OC(=O)[C@H](O)[C@@H](NC(=O)c4ccccc4)c4ccccc4)C(C)=C1C3(C)C)[C@]1(OC(C)=O)CO[C@@H]1C[C@@H]2O + COC1C(OC(N)=O)C(O)C(Oc2ccc3c(O)c(NC(=O)c4ccc(O)c(CC=C(C)C)c4)c(=O)oc3c2C)OC1(C)C
measured.endpoint: pIC50
reading: < 5.52

compound: COc1ccc([C@@H](O)c2cc(-c3ncnc4cc(N5CCOCC5)ccc34)c(F)cc2Cl)nn1 + COC1C(OC(N)=O)C(O)C(Oc2ccc3c(O)c(NC(=O)c4ccc(O)c(CC=C(C)C)c4)c(=O)oc3c2C)OC1(C)C
measured.endpoint: pIC50
reading: 5.42

What value of measured pIC50 is listed for CC(C)n1c(=O)n(C)c2cnc3cc(F)c(-c4ccc(OCCCN5CCCCC5)nc4)cc3c21 + Cc1cccc(N(C)C(=O)C2C(O)CCN2c2nc(C)cc(C(F)(F)F)c2C#N)c1 ?
< 5.00

Where these numbers come from: PubChem BioAssay AID1963835
